Test: NCI Yeast Anticancer Drug Screen. Data for the mec2-1 strain (AID 157)
Settings: S. cerevisiae mec2-1 strain, at 50.0 µM (retest, dose inferred, filed as 5.0)
The panel holds about 79,000 compounds, 15% with a hit somewhere; the sample as a whole holds those more often. The source made the active and inactive calls. Cut-off read from the data, not from the text of the source: active = growth inhibition above about 70%; inactive = the rest.
Your response should consist of one outcome taken from active, inactive

input: Hi, do you know how CCCCCCCCCCCCCCC(C(=O)[O-])[n+]1ccccc1 (centres undefined) came out in this test?
output: active

input: Hi, do you know how CN=C(N)N/N=C/c1ccc2c(c1)Cc1ccccc1-2 came out in this test?
output: active

input: Hi, do you know how Cc1cc(N=Nc2ccc(S(=O)(=O)[O-])cc2)cc(C(=O)[O-])c1[O-].NC1CCCCC1N.[Na+].[Pt+4] came out in this test?
output: active

input: Hi, do you know how c1ccc2c(c1)NC(NC1Nc3ccccc3N1)N2 came out in this test?
output: inactive

input: Hi, do you know how Cc1ccc(-c2ccc(Nc3c4ccccc4nc4ccccc34)cc2)cn1 came out in this test?
output: active

input: Hi, do you know how [O-][n+]1c2ccc(O)cc2nc2ccc(Br)cc21 came out in this test?
output: active

input: Hi, do you know how Clc1ccc(SC(/C=C/NNC2=NC(c3ccccc3)C(c3ccccc3)=NN2)c2ccccc2)cc1 (centres undefined) came out in this test?
output: inactive

input: Hi, do you know how Cn1c2ccccc2c(=O)c2cc(NC(=O)CCCCC(=O)Nc3ccc4c(c3)c(=O)c3ccccc3n4C)ccc21 came out in this test?
output: inactive

input: Hi, do you know how Cc1nc(-[n+]2nc(-c3ccncc3)nn2-c2ccccc2)sc1C came out in this test?
output: inactive

input: Hi, do you know how N/C(=N\OC(=O)NC(Cl)=C(Cl)Cl)c1cc(C(F)(F)F)cc(C(F)(F)F)c1 came out in this test?
output: inactive

input: Hi, do you know how CCCCCCCCCC/C=C\C(=O)O came out in this test?
output: active

input: Hi, do you know how Clc1ccccc1C1OC1c1ccccc1Cl (centres undefined) came out in this test?
output: active

input: Hi, do you know how OCC1OC(OCC(O)C(O)C(O)C(/C=N/Nc2ccccc2)=N/Nc2ccccc2)C(O)C(O)C1O (centres undefined) came out in this test?
output: inactive

input: Hi, do you know how Cc1ccc2ccc(O)cc2c1 came out in this test?
output: active

input: Hi, do you know how NC1=NS(=O)(=O)N=C(N)C1=Cc1ccc([N+](=O)[O-])o1 came out in this test?
output: inactive

input: Hi, do you know how c1ccc2c(c1)-c1nc3ccccc3cc1C2N1CCOCC1 (centres undefined) came out in this test?
output: inactive

input: Hi, do you know how O=[n+]1c2ccc(Cl)cc2n([O-])c2ccc(Cl)cc21 came out in this test?
output: inactive

input: Hi, do you know how CC1(Cl)CC(O)C2(CC1Br)C1(C)OC1C1OC1(Br)C2(C)C (centres undefined) came out in this test?
output: inactive

input: Hi, do you know how O=C(NCCCNCCCNC(=O)c1cc(-c2ccccc2)nc2ccccc12)c1cc(-c2ccccc2)nc2ccccc12 came out in this test?
output: inactive

input: Hi, do you know how CC(O)C(O)C(O)C(/C=N\Nc1ccccc1)=N/Nc1ccccc1 (centres undefined) came out in this test?
output: inactive

input: Hi, do you know how CCC(=O)c1cccc2ccccc12 came out in this test?
output: inactive

input: Hi, do you know how S=c1[nH]nc(Nc2ccc(Cl)cc2)s1 came out in this test?
output: active

input: Hi, do you know how N#C/C(=C\c1cccc(OCc2ccccc2)c1)c1ccc([N+](=O)[O-])cc1 came out in this test?
output: active

input: Hi, do you know how O=C([O][Sn]([O]C(=O)c1ccccc1)([c]1ccccc1)[c]1ccccc1)c1ccccc1 came out in this test?
output: inactive

input: Hi, do you know how CCCCCCCCCCCC1=C(O)C(=O)C=C(O)C1=O came out in this test?
output: active

input: Hi, do you know how Cc1ccc2[nH]c3c(C)c4cc[n+](C)cc4c(C)c3c2c1 came out in this test?
output: active

input: Hi, do you know how Fc1ccc(NC(=S)SCc2ccc(Cl)c(Cl)c2)cc1F came out in this test?
output: active

input: Hi, do you know how CN(C)c1nc2sc3c(c2c(=O)o1)CCCC3 came out in this test?
output: inactive

input: Hi, do you know how COC(=O)C1=C(C(=O)OC)C2(C)C=CC1O2 (centres undefined) came out in this test?
output: inactive

input: Hi, do you know how C=CC(C)(O)CCC1C(=C)C(O)CC2C(C)(C)CCCC12C (centres undefined) came out in this test?
output: inactive

input: Hi, do you know how O=C(O)c1ccccc1-c1ccccc1C(=O)Nc1ccc2c(c1)Cc1ccccc1-2 came out in this test?
output: inactive

input: Hi, do you know how CC(C)(Br)C(=O)/C=C/c1ccc(Cl)c(Cl)c1 came out in this test?
output: inactive

input: Hi, do you know how O=C(/C=C/c1cccc(Br)c1)c1cccs1 came out in this test?
output: active

input: Hi, do you know how NNC(=O)CCc1ccc2ccc3ccccc3c2c1 came out in this test?
output: inactive

input: Hi, do you know how NCCNc1ccc(NCCN)c2c1C(=O)c1c(O)ccc(O)c1C2=O came out in this test?
output: active

input: Hi, do you know how CC(C)c1cc(C(C)C)c(O)c(C([O-])[O-])c1.CC(C)c1cc(C(C)C)c(O)c(C([O-])[O-])c1.CC(C)c1cc(C(C)C)c(O)c(C([OH2+])[OH2+])c1.CC(C)c1cc(C(C)C)c(O)c(C([OH2+])[OH2+])c1.[Cu+2].[Cu+2].[OH3+].[OH3+] came out in this test?
output: inactive

input: Hi, do you know how CCCCCCc1cc(C(=O)OC/C(C)=N/NC(N)=O)c2ccccc2n1 came out in this test?
output: inactive

input: Hi, do you know how CCCS(=O)(=O)Nc1ccc(Nc2c3ccccc3nc3ccccc23)c(OC)c1 came out in this test?
output: active

input: Hi, do you know how Cn1ccnc1Oc1ccc(Cl)cc1 came out in this test?
output: inactive

input: Hi, do you know how COc1cc2c3c(cccc3c1)C(=O)N(CCN(C)C)C2=O came out in this test?
output: inactive

input: Hi, do you know how CC(=O)[O][Bi]([c]1ccccc1)[c]1ccccc1 came out in this test?
output: active

input: Hi, do you know how COc1cc(C2c3cc4c(cc3OC(NNc3ccccc3)C2C)OCO4)cc(OC)c1OC (centres undefined) came out in this test?
output: active

input: Hi, do you know how CC(=O)SCCC[Si](C)(C)CCCSC(C)=O came out in this test?
output: inactive

input: Hi, do you know how CSc1nc(=S)[nH]c2c1c(C)nn2-c1ccccc1 came out in this test?
output: active

src = PubChem BioAssay (NCI)
